assay: Tissue residues of sanguinarine and chelerythrine after 3 weeks of intragastric M. cordata extracts (HPLC-MS/MS); conditions: both, SD, rat, in vivo, 5 mg/kg, Residue in heart, 24 h after last dose, M. cordata extracts 5 mg/kg intragastric for 3 weeks
Test Readout: concentration at 24 h (ng/g)
Give the number; ng/g is assumed, so skip it.

## Input GET /values?readout=concentration at 24 h&item= C[n+]1cc2c3c(ccc2c2ccc4cc5c(cc4c21)OCO5)OCO3
## Output 2.91

---

Target: NAD(P)H quinone oxidoreductase (NQO1) (Rattus norvegicus)
Sequence (P05982 2-274 limits assumed): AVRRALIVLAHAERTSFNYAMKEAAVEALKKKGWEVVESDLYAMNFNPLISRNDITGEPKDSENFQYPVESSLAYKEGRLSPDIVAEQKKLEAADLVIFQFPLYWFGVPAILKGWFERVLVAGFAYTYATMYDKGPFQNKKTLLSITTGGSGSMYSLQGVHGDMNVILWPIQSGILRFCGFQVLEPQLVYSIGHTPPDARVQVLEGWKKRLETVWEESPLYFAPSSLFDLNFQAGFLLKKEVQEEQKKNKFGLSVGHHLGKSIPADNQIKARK
Test Readout: IC50
Put down the number, then write its unit next to it.

## Input GET /values?readout=IC50&item= C[n+]1cc2c3c(ccc2c2ccc4cc5c(cc4c21)OCO5)OCO3
## Output 112 µM

---

assay: Tissue residues of sanguinarine and chelerythrine after 3 weeks of intragastric M. cordata extracts (HPLC-MS/MS); conditions: both, SD, rat, in vivo, 5 mg/kg, Residue in kidney, 48 h after last dose, M. cordata extracts 5 mg/kg intragastric for 3 weeks
Test Readout: concentration at 48 h (ng/g)
Give the number; ng/g is assumed, so skip it.

## Input GET /values?readout=concentration at 48 h&item= C[n+]1cc2c3c(ccc2c2ccc4cc5c(cc4c21)OCO5)OCO3 [Sanguinarine]
## Output 5.65

---

assay: Tissue residues of sanguinarine and chelerythrine after 3 weeks of intragastric M. cordata extracts (HPLC-MS/MS); details: both, SD, rat, in vivo, 5 mg/kg, Residue in spleen, 48 h after last dose, M. cordata extracts 5 mg/kg intragastric for 3 weeks
Test Readout: concentration at 48 h (ng/g)
Give the number; ng/g is assumed, so skip it.

## Input GET /values?readout=concentration at 48 h&item= C[n+]1cc2c3c(ccc2c2ccc4cc5c(cc4c21)OCO5)OCO3
## Output 1.91
